Recorded measurements of Minimal Inhibitory Concentration (MIC), one per entry
# Test system: Serratia marcescens
# protocol.notes: Antibacterial activity MIC assay (two-fold dilution agar plating)
# Type: cell-based
# condition.label: Serratia marcescens ATCC 21074
Where a SMILES comes first, the peptide text is derived from it. Bridges are numbered along the chain shown (N, C = ends). [ ]: non-standard residue; d: D form. The star is where a group is joined. Heptanoyl(6-Me) = CC(C)CCCCC(=O)*; Dab = NCC[C@H](N)C(=O)O

compound: C=CCON=C(C(=O)NC1C(=O)N(OS(=O)(=O)O)C1(C)C)c1csc(N)n1 (stereo not shown)
units.text: µg/mL
result.operator: =
Minimal Inhibitory Concentration (MIC): 1
//
compound: CC1(C)[C@H](NC(=O)/C(=N\OC2(C(=O)O)CC2)c2nsc(N)n2)C(=O)N1OS(=O)(=O)O
units.text: µg/mL
result.operator: =
Minimal Inhibitory Concentration (MIC): 1
//
compound: CC(C)CCCCC(=O)N[C@@H](CCN)C(=O)N[C@H](C(=O)N[C@@H](CCN)C(=O)N[C@H]1CCNC(=O)[C@H]([C@@H](C)O)NC(=O)[C@H](CCN)NC(=O)[C@H](CCN)NC(=O)[C@H](CC(C)C)NC(=O)[C@@H](CC(C)C)NC(=O)[C@H](CCN)NC1=O)[C@@H](C)O [Colistin B, colistin B, reference compound] ({Heptanoyl(6-Me)}-[Dab]T[Dab][Dab][Dab][dL]L[Dab][Dab]T; lactam 4-C)
units.text: µg/mL
result.operator: >
Minimal Inhibitory Concentration (MIC): 64
//
compound: C#CCON=C(C(=O)NC1C(=O)N(OS(=O)(=O)O)C1(C)C)c1csc(N)n1 (stereo not shown)
units.text: µg/mL
result.operator: =
Minimal Inhibitory Concentration (MIC): 0.5

###

Recorded measurements of MIC, one per entry
# System: Enterobacter cloacae
# protocol.notes: Antibacterial activity MIC assay (two-fold dilution agar plating)
# Assay type: cell-based
# condition.label: ATCC43560; Enterobacter cloacae ATCC 43560; read-out: Minimal Inhibitory Concentration (MIC)
reported.property: MIC (µg/mL)

molecule: C[C@H]1[C@H](NC(=O)/C(=N\OC(C)(C)C(=O)O)c2csc(N)n2)C(=O)N1S(=O)(=O)O [AZN, aztreonam, reference compound]
experimental.system: Enterobacter cloacae
reported.property: MIC
result.operator: ≤
measurement: 0.03
--
molecule: CC(C)[C@H](O/N=C(\C(=O)N[C@@H]1C(=O)N(OS(=O)(=O)O)C1(C)C)c1csc(N)n1)C(=O)O
experimental.system: Enterobacter cloacae
reported.property: MIC
result.operator: =
measurement: 0.12
--
molecule: CC1(C)[C@H](NC(=O)/C(=N\OC2(C(=O)O)CCC2)c2csc(N)n2)C(=O)N1OS(=O)(=O)O
experimental.system: Enterobacter cloacae
reported.property: MIC
result.operator: =
measurement: 0.12
--
molecule: CC(C)[C@@H](O/N=C(\C(=O)N[C@@H]1C(=O)N(OS(=O)(=O)O)C1(C)C)c1csc(N)n1)C(=O)O
experimental.system: Enterobacter cloacae
reported.property: MIC
result.operator: =
measurement: 16
--
molecule: CC1(C)[C@H](NC(=O)/C(=N\OC2(C(=O)O)CCCCC2)c2csc(N)n2)C(=O)N1OS(=O)(=O)O
experimental.system: Enterobacter cloacae
reported.property: MIC
result.operator: =
measurement: 1
--
molecule: CC1(C)[C@H](NC(=O)/C(=N\OC2(C(=O)O)CCCC2)c2csc(N)n2)C(=O)N1OS(=O)(=O)O
experimental.system: Enterobacter cloacae
reported.property: MIC
result.operator: =
measurement: 0.5
--
molecule: CC1(C)[C@H](NC(=O)/C(=N\OC2(C(=O)O)CC2)c2csc(N)n2)C(=O)N1OS(=O)(=O)O
experimental.system: Enterobacter cloacae
reported.property: MIC
result.operator: =
measurement: 0.06
--
molecule: C[C@H]1COc2c(N3CCN(C)CC3)c(F)cc3c(=O)c(C(=O)O)cn1c23 [Levofloxacin, levofloxacin, reference compound]
experimental.system: Enterobacter cloacae
reported.property: MIC
result.operator: ≤
measurement: 0.03

###

# Tested on: Pseudomonas aeruginosa
# protocol.notes: Antibacterial activity MIC assay (two-fold dilution agar plating)
# Type: cell-based
# condition.label: Pseudomonas aeruginosa PAO1
# Description: Antibacterial Activity-Evaluating Method (MIC Assay) In this study, the compounds of the present invention were tested for their antibacterial activities by using two-fold dilution agar plating method and Denley Multipoint Inoculator A400 according to the guidelines of the CLSI/NCCLS standard. […] The drug concentration with no microbial growth in the well was recorded as the lowest Minimal Inhibitory Concentration (MIC).
Where a SMILES comes first, the peptide text is derived from it. Bridges are numbered along the chain shown (N, C = ends). [ ]: non-standard residue; d: D form. The star is where a group is joined. Heptanoyl(6-Me) = CC(C)CCCCC(=O)*; Dab = NCC[C@H](N)C(=O)O

molecule: C=CCON=C(C(=O)NC1C(=O)N(OS(=O)(=O)O)C1(C)C)c1csc(N)n1 (stereo not shown)
experimental.system: Pseudomonas aeruginosa
Minimal Inhibitory Concentration (MIC), µg/mL: 16
//
molecule: C#CCON=C(C(=O)NC1C(=O)N(OS(=O)(=O)O)C1(C)C)c1csc(N)n1 (stereo not shown)
experimental.system: Pseudomonas aeruginosa
Minimal Inhibitory Concentration (MIC), µg/mL: 32
//
molecule: CC(C)CCCCC(=O)N[C@@H](CCN)C(=O)N[C@H](C(=O)N[C@@H](CCN)C(=O)N[C@H]1CCNC(=O)[C@H]([C@@H](C)O)NC(=O)[C@H](CCN)NC(=O)[C@H](CCN)NC(=O)[C@H](CC(C)C)NC(=O)[C@@H](CC(C)C)NC(=O)[C@H](CCN)NC1=O)[C@@H](C)O [Colistin B, colistin B, reference compound] ({Heptanoyl(6-Me)}-[Dab]T[Dab][Dab][Dab][dL]L[Dab][Dab]T; lactam 4-C)
experimental.system: Pseudomonas aeruginosa
Minimal Inhibitory Concentration (MIC), µg/mL: 8
//
molecule: CC1(C)[C@H](NC(=O)/C(=N\OC2(C(=O)O)CC2)c2nsc(N)n2)C(=O)N1OS(=O)(=O)O
experimental.system: Pseudomonas aeruginosa
Minimal Inhibitory Concentration (MIC), µg/mL: 8

###

Recorded measurements of Minimal Inhibitory Concentration (MIC), one per entry
# System: Escherichia coli
# protocol.notes: Antibacterial activity MIC assay (two-fold dilution agar plating)
# Type: cell-based
# condition.label: Escherichia coli 08-85, mcr-1(+)
# Description: Antibacterial Activity-Evaluating Method (MIC Assay) In this study, the compounds of the present invention were tested for their antibacterial activities by using two-fold dilution agar plating method and Denley Multipoint Inoculator A400 according to the guidelines of the CLSI/NCCLS standard. […] The drug concentration with no microbial growth in the well was recorded as the lowest Minimal Inhibitory Concentration (MIC).
Where a SMILES comes first, the peptide text is derived from it. Bridges are numbered along the chain shown (N, C = ends). [ ]: non-standard residue; d: D form. The star is where a group is joined. Heptanoyl(6-Me) = CC(C)CCCCC(=O)*; Dab = NCC[C@H](N)C(=O)O

compound: C=CCON=C(C(=O)NC1C(=O)N(OS(=O)(=O)O)C1(C)C)c1csc(N)n1 (stereo not shown)
Minimal Inhibitory Concentration (MIC): 0.5 µg/mL
//
compound: CC(C)CCCCC(=O)N[C@@H](CCN)C(=O)N[C@H](C(=O)N[C@@H](CCN)C(=O)N[C@H]1CCNC(=O)[C@H]([C@@H](C)O)NC(=O)[C@H](CCN)NC(=O)[C@H](CCN)NC(=O)[C@H](CC(C)C)NC(=O)[C@@H](CC(C)C)NC(=O)[C@H](CCN)NC1=O)[C@@H](C)O [Colistin B, colistin B, reference compound] ({Heptanoyl(6-Me)}-[Dab]T[Dab][Dab][Dab][dL]L[Dab][Dab]T; lactam 4-C)
Minimal Inhibitory Concentration (MIC): 8 µg/mL
//
compound: CC1(C)[C@H](NC(=O)/C(=N\OC2(C(=O)O)CC2)c2nsc(N)n2)C(=O)N1OS(=O)(=O)O
Minimal Inhibitory Concentration (MIC): 4 µg/mL
//
compound: C#CCON=C(C(=O)NC1C(=O)N(OS(=O)(=O)O)C1(C)C)c1csc(N)n1 (stereo not shown)
Minimal Inhibitory Concentration (MIC): 0.5 µg/mL

###

# Tested on: Escherichia coli
# protocol.notes: Antibacterial activity MIC assay (two-fold dilution agar plating)
# Type: cell-based
# condition.label: Escherichia coli, Escherichia coli CDC1001728, NDM-1(+); read-out: Minimal Inhibitory Concentration (MIC)
reported.property: MIC

compound: CC1(C)[C@H](NC(=O)/C(=N\OC2(C(=O)O)CC2)c2csc(N)n2)C(=O)N1OS(=O)(=O)O
measurement: 0.25 µg/mL
--
compound: CC1(C)[C@H](NC(=O)/C(=N\OC2(C(=O)O)CCCC2)c2csc(N)n2)C(=O)N1OS(=O)(=O)O
measurement: 0.5 µg/mL
--
compound: C[C@H]1[C@H](NC(=O)/C(=N\OC(C)(C)C(=O)O)c2csc(N)n2)C(=O)N1S(=O)(=O)O [AZN, aztreonam, reference compound]
measurement: 4 µg/mL
--
compound: CC(C)[C@H](O/N=C(\C(=O)N[C@@H]1C(=O)N(OS(=O)(=O)O)C1(C)C)c1csc(N)n1)C(=O)O
measurement: 0.5 µg/mL
--
compound: CC1(C)[C@H](NC(=O)/C(=N\OC2(C(=O)O)CCCCC2)c2csc(N)n2)C(=O)N1OS(=O)(=O)O
measurement: 2 µg/mL
--
compound: CC1(C)[C@H](NC(=O)/C(=N\OC2(C(=O)O)CCC2)c2csc(N)n2)C(=O)N1OS(=O)(=O)O
measurement: 0.5 µg/mL
--
compound: CC(C)[C@@H](O/N=C(\C(=O)N[C@@H]1C(=O)N(OS(=O)(=O)O)C1(C)C)c1csc(N)n1)C(=O)O
measurement: 32 µg/mL
--
compound: C[C@H]1COc2c(N3CCN(C)CC3)c(F)cc3c(=O)c(C(=O)O)cn1c23 [Levofloxacin, levofloxacin, reference compound]
measurement: 8 µg/mL
